- target_entity: T1, human LIGHT (TNFSF14), full length, membrane-bound (214E allele) (human, UniProt O43557 1-240)
- T1 construct: also called membrane LIGHT; human membrane LIGHT
- test_name: flow cytometry, EL4-LIGHT cells
Some binders, each annotated with its measured EC50.

>>> endpoint_result("3B04_var2 (antibody, human IgG4, V domains shown, human IgG4 (S241P, L248E, Kabat); also called 3B04 VL1VH2 (var2)) VH: QVQLVQSGAEVKKPGASVKVSCKASGYTFTDYEMHWVRQAPGQGLEWIGEIDPETGDTAYSQKFQGRVTLTADKSTSTAYMEFSSLRSEDTAVYYCSRETDYFFDYWGQGTLVTVSS VL: DIQMTQSPSSLSASVGDRVTITCGASENIYGALNWYQRKQGKAPQLLIYGATNLADGVSSRFSGSGSGRDYTLTISSLQPEDFATYYCQNVLTTPWTFGQGTKLEIKR")
"0.38 nM"

[Q] Given the entry 3B04_var14 (antibody, human IgG4, V domains shown, human IgG4 (S241P, L248E, Kabat); also called 3B04 VL4VH2 (var14)) VH: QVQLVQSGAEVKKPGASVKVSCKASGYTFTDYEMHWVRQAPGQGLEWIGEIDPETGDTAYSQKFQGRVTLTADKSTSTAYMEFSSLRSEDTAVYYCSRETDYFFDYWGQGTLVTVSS VL: DIQMTQSPSSLSASVGDRVTITCRASENIYGALNWYQQKPGKAPKLLIYGATNLAEGVPSRFSGSGSGRDYTLTISSLQPEDFATYYCQNVLTTPWTFGQGTKLEIKR , report its measured EC50.
[A] 0.3 nM

[Q] Moving on to the next binder: 3B04_var9 (antibody, human IgG4, V domains shown, human IgG4 (S241P, L248E, Kabat); also called 3B04 VL3VH1 (var9)) VH: QVQLVQSGAEVKKPGASVKVSCKASGYTFTDYEMHWVRQAPGQGLEWIGEIDPETGDTAYSQKFKGRATLTADKSTSTAYMEFSSLRSEDTAVYYCSRETDYFFDYWGQGTLVTVSS VL: DIQMTQSPSSLSASVGDRVTITCGASENIYGALNWYQQKPGKAPKLLIYGATNLADGVPSRFSGSGSGRDYTLTISSLQPEDFATYYCQNVLTTPWTFGQGTKLEIKR
[A] 0.26 nM

Recorded values, source patent US20230035798A1.
